# Test system: Plasmodium falciparum
# Protocol: GSK_TCMDC: Inhibition of Plasmodium falciparum 3D7 in whole red blood cells, using parasite LDH activity as an index of growth. Test compounds present at 2uM
# Assay type: functional
Readout: Inhibition
Form field: result (number plus unit)

Q: What does the data say about its Inhibition? Entry: CC(C)c1cc(C(=O)N[C@@H](Cc2ccccc2)[C@H](O)CNC2CCCCC2)cc(N2CCCC2=O)c1
Ans: 100%

Q: What does the data say about its Inhibition? Entry: COc1ccc(CCN(C)CCOc2ccc(NC(=O)c3cc(SC)cc4c(=O)c5ccccc5[nH]c34)cc2)cc1OC
Ans: 87%

Q: What does the data say about its Inhibition? Entry: O=C(/C=C/c1ccc(Cl)c(Cl)c1)NCCCCCN1CCCN(C(=O)Nc2ccc(Cl)cc2)CC1
Ans: 100%

Q: What does the data say about its Inhibition? Entry: Cc1cc(N[C@@H](CC(C)C)C(=O)NC2CCCC2)nc(NCCc2ccc(F)cc2)n1.O=C(O)C(F)(F)F
Ans: 100%

Q: What does the data say about its Inhibition? Entry: COc1cc2c(cc1COc1ccccc1)CCN1Cc3cc(OC)c(OC)cc3CC21 (stereo not drawn)
Ans: 99%

Q: What does the data say about its Inhibition? Entry: O=C(NC1CCN(CCN2CCc3ccccc3CC2)CC1)c1ccc(-c2ccc(C(F)(F)F)cc2)cc1
Ans: 99%

Q: What does the data say about its Inhibition? Entry: O=C(Nc1cccc(Cl)c1Cl)NC1CCN(Cc2cccc(O)c2)CC1.O=C(O)C(F)(F)F
Ans: 98%

Q: What does the data say about its Inhibition? Entry: O=C(c1ccc(O)c(-c2cc(Cl)cc(Cl)c2)c1)N1CCCC1
Ans: 90%

Others:
Q: What does the data say about its Inhibition? Entry: O=C(/C=C/c1ccc(Cl)c(Cl)c1)NCCCCCCN1CCN(C(=O)Nc2cccc(Cl)c2)CC1
Ans: 85%

Q: What does the data say about its Inhibition? Entry: O=C(C=Cc1ccc(Cl)c(Cl)c1)NCCCCCN1CCCC(CCCNC(=O)/C=C/c2ccccc2)C1 (stereo not drawn)
Ans: 98%

Q: What does the data say about its Inhibition? Entry: NC1CCN(Cc2ccc(-c3ccc(-c4nc5ccccc5[nH]4)cc3)cc2)C1.O=C(O)C(F)(F)F (stereo not drawn)
Ans: 100%

Q: What does the data say about its Inhibition? Entry: CN(C)C(=O)C(CC(=O)NCc1ccccc1Cl)N(C)C.CN(C)C(=O)CC(C(=O)NCc1ccccc1Cl)N(C)C.O (stereo not drawn)
Ans: 96%

Q: What does the data say about its Inhibition? Entry: COc1ccc2nccc(NCC3(O)CCN(CC(O)c4ccc5c(c4)NC(=O)CS5)CC3)c2n1.Cl (stereo not drawn)
Ans: 100%

Q: What does the data say about its Inhibition? Entry: c1ccc(CSC2=NNC(c3ccccn3)S2)cc1 (stereo not drawn)
Ans: 80%

Cited source: ChEMBL document CHEMBL1157539
